What IC50 was measured for each of the following?
System: Calcium Channel
Assay: Calcium Channel (mobilization) Inhibition Assay
Assay type: cell-based
Conditions: read-out: IC50 (umolar) (KCl regulated), Calcium Channel Inhibition Assay
Provide the reading as a plain figure in µM.

Requested read-out: IC50. Entry: CCCCCCCCC(OC(C)=O)C1=CCOC1=O (stereo not shown) [Compound 70, 3-(1-Acetoxynonyl)-2(5H)-furanone] 3.4

Endpoint output: IC50 of CCCCCCCCCCCCC(O)C1=CCOC1=O (stereo not shown) [Compound 71, 3-(1-Hydroxytridecyl)-2(5H)-furanone] . Value? 1.1

Dear colleague, I am looking for the recorded IC50 of the following molecule: CCCCCCCCCCCCC(OC(C)=O)C1=CCOC1=O (stereo not shown) [Compound 72, 3-(1-Acetoxytridecyl)-2(5H)-furanone] 0.88

Need IC50, item CC1=C(CC/C(C)=C/CCC2=CCC(C3=CC(=O)OC3O)OC2O)C(C)(C)CCC1 (stereo not shown) [manoalide, reference compound] 1

----------
# bee venom phospholipase A2 (Apis mellifera, UniProt P00630): IC50 values follow
# Sequence (P00630 34-167 limits assumed): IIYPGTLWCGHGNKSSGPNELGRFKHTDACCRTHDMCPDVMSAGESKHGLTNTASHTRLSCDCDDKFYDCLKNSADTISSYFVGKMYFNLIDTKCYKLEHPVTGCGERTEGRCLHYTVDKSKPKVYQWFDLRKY
The response must be a number in nM with no trailing unit.

Name the recorded IC50 for CCCCCCCCCCCC(=O)NCC(OC(=O)CCCCCCCCCCC)C1=CC(=O)OC1O (centres unmarked) [Compound 42] . 30

Tell me the measured IC50 of CCCCCCCCCCCCS(=O)(=O)NCC(OC(C)=O)C1=CC(=O)OC1O (centres unmarked) [Compound 43] , please. 30

Given the entry CCCCCCCCCCCCC(OC(C)=O)C1=CC(=O)OC1O (centres unmarked) [Compound 28] , report its measured IC50. 40

Using the record for CCCCCCCCCCCCS(=O)(=O)NCC1=CC(=O)OC1O (centres unmarked) [Compound 27] , report its IC50. 40

Fill in: IC50 of CCCCCCCCCCCCSCC1=CC(=O)OC1O (centres unmarked) [Compound 47] is ___ 60

Need IC50 of CCCCCCCCCCCC(=O)OC(CNC(=O)N1CCN(S(C)(=O)=O)CC1)C1=CC(=O)OC1O (centres unmarked) [Compound 45] , thanks. 50

Given the compound CCCCCCCCCCCCOCC1=CC(=O)OC1O (centres unmarked) [Compound 23] , what is its reported IC50? 40

Name the reported IC50 value associated with the compound CCCCCCCCCCCC(=O)NCC(O)C1=CC(=O)OC1O (centres unmarked) [Compound 40] 280

Quick check: IC50 of CCCCCCCCCCCCP(=O)(O)OCC1=CC(=O)OC1O (centres unmarked) [Compound 21] ? 30

Query: IC50; subject: CCCCCCCCCCCCC(NC(=O)C(F)(F)F)C1=CC(=O)OC1O (centres unmarked) [Compound 30] 60

Can you look up the measured IC50 of CC(=O)OC(CNC(=O)CCCCCCCCCCC(=O)O)C1=CC(=O)OC1O (centres unmarked) [Compound 44] for me? 90

Give its IC50 value. Item: CCCCCCCCCCCCC(OC(=O)Nc1ccccc1)C1=CC(=O)OC1(C)O (centres unmarked) [Compound 62] 240

I would be grateful if you could share the reported IC50 for CCCCCCCCCCCC(=O)OCCCC1=CC(=O)OC1O (centres unmarked) [Compound 50] . 500

Looking for the measured IC50 of CCCCCCCCCCCCC(NS(C)(=O)=O)C1=CC(=O)OC1O (centres unmarked) [Compound 31] , can you help? 50

Item under review: CCCCCCCCCCCCC(NC(=O)NC)C1=CC(=O)OC1O (centres unmarked) [Compound 32] . Reported IC50? 480

Give the measured IC50 of CCCCCCCCCCCC(=O)OC(CNC(=O)N(CC)CC)C1=CC(=O)OC1O (centres unmarked) [Compound 46] . 20

Return reported IC50; argument: CCCCCCCCCCCC(=O)NCC(OC(C)=O)C1=CC(=O)OC1O (centres unmarked) [Compound 41] 40

Quick check: IC50 of CCCCCCCCCCCCC(NC(C)=O)C1=CC(=O)OC1O (centres unmarked) [Compound 29] ? 70

// IC50 lookup, key: CCCCCCCCCCCCNC(=O)OCC1=CC(=O)OC1O (centres unmarked) [Compound 22] 50

Would you kindly share the measured IC50 for CCCCCCCCOC(=O)C=CC1=CC(=O)OC1O (centres unmarked) [Compound 51] ? 90

Reported IC50, compound CCCCCCCCCCCC(=O)NCC1=CC(=O)OC1O (centres unmarked) [Compound 25] : ____ 260

Can you share its IC50? I mean this compound: CCCCCCCCCCCCNC(=O)NCC1=CC(=O)OC1O (centres unmarked) [Compound 26] 130

Fill in: IC50 of CCOP(=O)(OCC)OCC1=CC(=O)OC1O (centres unmarked) [Compound 24] is ___ 340

GET /values?readout=IC50&item= CCCCCCCCCCCCC(OC(C)=O)C1=CC(=O)OC1(C)O (centres unmarked) [Compound 60] 60
